# shrunken log2 fold change per record follows
# Tested on: Escherichia coli TOP10;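 also: peptides expressed intracellularly from a pBAD plasmid library in pooled LB shake-flask culture, induced with 0.3% L-arabinose, DNA abundance read by NGS, three biological replicates, DESeq2 with apeglm shrinkage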
# protocolDescription: shrunken log2 fold change of peptide-encoding DNA abundance (4.5 h post-induction vs induction); higher = less antimicrobial activity (less host growth inhibition)
# testConditions: time post-induction: 4.5 h; library: site-saturation at positions 5, 18, 19, 20

Consider the reported shrunken log2 fold change for these sequences:
I'd like to know its shrunken log2 fold change. The sequence in question is `RRIRRRPPRLPRPRPRPRLSPRP`
-0.0979

// same read-out, input: `RRIRPRPPRLPRPRPRPDLWPRP`
0.344

// same read-out, input: `RRIRIRPPRLPRPRPRPYLSPRP`
-0.0357

// same read-out, input: `RRIRHRPPRLPRPRPRPICAPRP`
-0.0362

// same read-out, input: `RRIRNRPPRLPRPRPRPWDKPRP`
0.0447

// same read-out, input: `RRIRMRPPRLPRPRPRPGSCPRP`
0.29

---
I'd like to know its shrunken log2 fold change. The sequence in question is `RRIRVRPPRLPRPRPRPISRPRP`
0.107

// same read-out, input: `RRIRTRPPRLPRPRPRPGGWPRP`
1.23

// same read-out, input: `RRIRIRPPRLPRPRPRPGSCPRP`
0.968

// same read-out, input: `RRIRPRPPRLPRPRPRPDPYPRP`
0.0668
